# procedure_details: Oral bioavailability in mouse at 1 mg/kg by LC-MS/MS analysis
# Format: ADME, organism-based
# test_parameters: in vivo
metric_name: bioavailability (%)

>>> test_value("Cc1cnc2c(NC(=O)c3cn4cc(C56COC(C)(C5)C6)nc4nc3OC(C)C)cnn2c1")
98

Reference source: ChEMBL document CHEMBL5518220
